experiment: kinase inhibitors against Plasmodium liver-stage infection, cell-based, known kinase inhibitor set, luminescence, hepatoma host viability (AID 624392); conditions: Plasmodium liver stage in hepatoma cells, luciferase luminescence, concentration not given here; stronger effect = lower value;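 also: infected cells incubated roughly two days before readout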
Known parasite % of control of a selection of compounds
Express the result in % but write the number alone.

For orientation, consider the following solved cases.
CNC(=O)Oc1cc(C)c(/C=C/c2cncc(C(=O)NC)c2)c(C)c1 :: 110
CNS(=O)(=O)c1ccc(-c2ccc(C=C3C(=O)NC(=O)NC3=O)o2)cc1 :: 111
NS(=O)(=O)c1ccc(-c2ccc(C=C3C(=O)NC(=O)NC3=O)o2)cc1 :: 97.7
O=C1NC(=O)C(=Cc2ccc(-c3ccc(F)cc3O)o2)C(=O)N1 :: 87.6
O=C1NC(=O)C(=Cc2ccc(-c3ccc(Cl)cc3)o2)C(=O)N1 :: 167
Cn1cc(C2=C(c3cn(CCCNC(N)=N[N+](=O)[O-])c4ccccc34)C(=O)NC2=O)c2ccccc21 :: 62.5

Could you now look at the following compound, please?
input: Report parasite % of control for `O=C1NC(=O)C(=Cc2ccc(-c3ccc(S(=O)(=O)N4CCOCC4)cc3)o2)C(=O)N1` please.
output: 98.3

* * *

assay: sensitizers of A549 cells to miR-34 induction, primary screen, imaging, A549 dox-inducible miR-34, nuclei and caspase counts (AID 1347080); conditions: A549 miR-34 inducible, Hoechst nuclei count, 48 h; measured here: total cells without miR-34 induction
Output schema: class label derived from cell count. Mapping: interval 1: < 6000; interval 2: ≥ 6000 and < 10000; interval 3: ≥ 10000

Sample answers from the record:
c1cc(N2CCNCC2)c2cnccc2c1 :: interval 1
O=C1C=CC(=O)c2c(O)cccc21 :: interval 1
O=C1CN=C(c2ccccc2Cl)c2cc([N+](=O)[O-])ccc2N1 :: interval 3
Cc1ccc2c(c1)Cc1c(C(=O)NC3CCCCC3)nn(-c3ccc(Cl)cc3Cl)c1-2 :: interval 2

input: Which cell count category applies to `Cc1o[nH]c(=O)c1C[C@H](N)C(=O)O` here?
output: interval 2

input: // query: `C/C1=C/C(=O)O[C@@H]2C[C@@H](CC[C@H](C)/C=C\CC1)O[C@@](O)([C@@H]1CSC(=O)N1)C2`
output: interval 1

input: Moving on to CC(C)NCC(O)c1ccccc1Cl (stereo unspecified)
output: interval 2

input: Again, but for `c1cc2ccc(N3CCNCC3)cc2cn1`
output: interval 1

input: And then OC[C@H]1O[C@@H](n2cnc3cc(Cl)c(Cl)cc32)C(O)[C@H]1O (stereo partly specified) , what is it?
output: interval 1

input: Entry to check: `COc1ccc2c(c1O)-c1cccc3c1[C@@H](C2)N(C)CC3`
output: interval 2

input: `CO/C1=C\C(C)=C\[C@@H](C)[C@@H](O)[C@@H](C)C/C(C)=C/C=C/[C@H](OC)[C@@H]([C@@H](C)[C@@H](O)[C@H](C)[C@@]2(O)C[C@@H](O)[C@H](C)[C@@H](C(C)C)O2)OC1=O` , same question.
output: interval 1

input: Query C/C=C1/C[N+]2(C)CCC34C(=C(C=O)[C@H]1C[C@@H]32)Nc1ccccc14 (stereo partly specified) next
output: interval 2

input: Try this compound too: CC(C(=O)OC1CC2CCC(C1)N2C)c1ccc(Br)cc1 (stereo unspecified)
output: interval 2

input: `C[C@@H]1NCCc2cc(O)c(O)cc21` ?
output: interval 3

input: Please do the same for `CN[C@@H]1[C@@H](O)[C@@H](O[C@@H]2[C@@H](O)[C@H](O[C@H]3O[C@H]([C@@H](C)NC)CC[C@H]3N)[C@@H](N)C[C@H]2N)OC[C@]1(C)O` as well.
output: interval 3

input: Can you check `c1ccc2cc(CC3=NCCN3)ccc2c1` next?
output: interval 3

* * *

assay: growth inhibition of GSK3B-pretreated HCT116 cells – cell-based, CellTiter-Glo, 0.2 to 20 µM (AID 1117336); settings: HCT116 viability after GSK3B inhibitor, at 20 µM, stronger effect = higher value
outcome_measure: viability decrease (%)
Express it in %; write the number only.

Here's what some known entries look like.
CCOC(=O)C(c1c(O)c2ccccc2oc1=O)c1c(O)c2ccccc2oc1=O :: 13
CC1Sc2c(C(=O)O)c(=O)c3cc(F)c(N4CCNCC4)cc3n21 (stereo not drawn) :: 43.4
CCC1(C2=NCCN2)Cc2ccccc2O1 (stereo not drawn) :: -18.3
CC(C)c1cccc(C(C)C)c1O :: 83.9

input: Please report the recorded viability decrease for `CCC(C)(C)c1ccc(O)cc1` .
output: -20.2

input: Can you handle COCC(=O)N(c1c(C)cccc1C)C(C)C(=O)OC (stereo not drawn) next?
output: -0.7

input: Now the compound CCN1CCCC1CNC(=O)C(O)(c1ccccc1)c1ccccc1 (stereo not drawn)
output: -4.1

input: Input `O=c1n(Cl)c(=O)n(Cl)c(=O)n1Cl`
output: -15.4

input: What do we get for `Cc1ncsc1CCCl` ?
output: -208

input: Again, but for `Cc1cccc(C)c1NC(=O)CN1CCCC1=O`
output: 0.1

input: Next compound: `CN1CCC(N(Cc2ccccc2)c2ccccc2)CC1`
output: 24.8

input: # iterate: `C=C1CC[C@@]2(O)[C@H]3Cc4ccc(O)c5c4[C@@]2(CCN3CC2CC2)[C@H]1O5`
output: -11.9

input: Would you kindly repeat that for CC(Cc1ccccc1)N(C)Cc1ccco1 (stereo not drawn) ?
output: -12.2

* * *

The reader will find reported inhibition values listed item by item below.
test: HTB85 osteosarcoma cell growth inhibition, synergistic combos for chromothripsis tumors, BGB or cisplatin IC20 combos (AID 1671453); details: HTB85 osteosarcoma cells, drug combinations, measured here: with cisplatin IC20, at 5 µM, stronger effect = higher value;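 also: cells exposed for 96 hours before readout; 0% = vehicle DMSO and 100% = high DMSO killing control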
Answer with a number only, understood to be in %.

Guide cases for inhibition, answers given:
CN(C)NC(=O)CCC(=O)O :: -1.55
Cn1c(CCCC(=O)O)nc2cc(N(CCCl)CCCl)ccc21 :: -38
O=c1[nH]c(=O)n(C2OC(CO)C(O)C2O)cc1F (stereo not drawn) :: 57.2
COc1cc(C2c3cc4c(cc3C(O)C3COC(=O)C23)OCO4)cc(OC)c1OC (stereo not drawn) :: 73
CC1(C)C(C(=O)Nc2ccc(S(=O)(=O)c3ccc(NC(=O)C4C(C)(C)C4(C)C)cc3)cc2)C1(C)C :: -19.7
CCC1(c2ccccc2)C(=O)NC(=O)NC1=O :: 10.2

input: What value of measured inhibition is listed for `Cn1c(COP(=O)(NCCBr)NCCBr)cnc1[N+](=O)[O-]` ?
output: 2.49

input: Same again, this time with `O=C(O)CCCc1ccc(N(CCCl)CCCl)cc1`
output: -8.05

* * *

molecular target: ATP-dependent translocase ABCB1 (Homo sapiens) (UniProt P08183); experiment: MDR1 (ABCB1) efflux transporter inhibition, cell-based (AID 377); conditions: MDR1-expressing cells, fluorescent substrate accumulation slope; stronger effect = higher value; concentration not given here
Sequence (P08183 whole entry, looked up): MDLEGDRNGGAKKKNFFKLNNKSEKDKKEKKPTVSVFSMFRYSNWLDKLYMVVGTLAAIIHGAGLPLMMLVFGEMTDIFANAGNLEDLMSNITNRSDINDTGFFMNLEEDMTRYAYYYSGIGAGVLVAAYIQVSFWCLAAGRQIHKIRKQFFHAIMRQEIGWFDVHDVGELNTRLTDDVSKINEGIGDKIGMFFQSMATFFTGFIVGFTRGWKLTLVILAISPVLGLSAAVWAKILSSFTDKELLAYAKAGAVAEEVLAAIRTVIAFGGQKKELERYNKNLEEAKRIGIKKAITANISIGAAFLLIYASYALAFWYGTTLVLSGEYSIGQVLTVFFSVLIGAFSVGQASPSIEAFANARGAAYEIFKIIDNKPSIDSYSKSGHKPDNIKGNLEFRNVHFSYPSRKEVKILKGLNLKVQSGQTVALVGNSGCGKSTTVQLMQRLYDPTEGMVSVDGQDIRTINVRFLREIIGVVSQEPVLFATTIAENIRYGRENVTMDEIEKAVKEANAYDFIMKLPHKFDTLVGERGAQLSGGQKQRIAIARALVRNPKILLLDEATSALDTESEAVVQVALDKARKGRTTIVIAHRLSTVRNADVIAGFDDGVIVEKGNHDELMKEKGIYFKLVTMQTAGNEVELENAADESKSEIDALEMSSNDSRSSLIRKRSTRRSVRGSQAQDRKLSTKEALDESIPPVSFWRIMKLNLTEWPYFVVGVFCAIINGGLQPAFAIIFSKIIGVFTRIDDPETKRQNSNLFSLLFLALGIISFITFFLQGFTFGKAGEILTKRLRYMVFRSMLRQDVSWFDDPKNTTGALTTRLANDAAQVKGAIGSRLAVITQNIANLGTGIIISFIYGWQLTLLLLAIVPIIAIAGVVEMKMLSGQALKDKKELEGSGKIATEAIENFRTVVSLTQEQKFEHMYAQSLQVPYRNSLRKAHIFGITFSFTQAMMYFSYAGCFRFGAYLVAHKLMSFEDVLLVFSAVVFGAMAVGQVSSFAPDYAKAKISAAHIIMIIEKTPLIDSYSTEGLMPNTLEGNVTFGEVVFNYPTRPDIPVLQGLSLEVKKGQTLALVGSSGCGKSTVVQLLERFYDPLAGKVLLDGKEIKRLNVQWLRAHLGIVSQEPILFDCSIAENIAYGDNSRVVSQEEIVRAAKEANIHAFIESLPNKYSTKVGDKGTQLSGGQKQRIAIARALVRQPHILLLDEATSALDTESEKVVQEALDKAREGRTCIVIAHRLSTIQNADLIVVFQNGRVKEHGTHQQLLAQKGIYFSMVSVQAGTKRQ
Results filed as inconclusive are left out.
Measured fluorescence slope change values are reported for all entries that follow.
Numeric only. Scale: %

Examples with their reported fluorescence slope change follow.
O=c1oc2ccccc2c(O)c1Cc1c(O)c2ccccc2oc1=O :: -7.2
CN(C)[C@@H]1C(=O)C(C(N)=O)=C(O)[C@@]2(O)C(=O)C3=C(O)c4c(O)cccc4[C@@](C)(O)[C@H]3C[C@@H]12 :: 76.3
O=C1CC[C@@]2(O)[C@H]3Cc4ccc(O)c5c4[C@@]2(CCN3CC2CC2)[C@H]1O5 :: 79.9
N[C@@H](Cc1ccc(N(CCCl)CCCl)cc1)C(=O)O :: 94.7

Turning now to a further molecule:
input: Look up fluorescence slope change: `CN(CC(=O)O)/C(N)=N/P(=O)(O)O`
output: 63.4

* * *

Quick list: activity remaining per entry.
tested on: Aerobactin synthetase IucA (Klebsiella pneumoniae hvKP1); assay: Biochemical IucA enzyme inhibition primary screen of the Spectrum library (AID 1346200); conditions: malachite green pyrophosphate, A620, at 8 µM, stronger effect = lower value;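 also: 100% = wells without compound and 0% = wells lacking enzyme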
Please reply with the bare figure in % and do not write the unit itself.

These solved cases illustrate the format of a correct answer.
COc1cc(OC)c2c(c1Cl)OC1(C2=O)C(O)=CC(=O)CC1C (stereo unspecified) :: 107
C[C@H]1C(=O)O[C@@H]2CCN3CC=C(COC(=O)[C@](C)(O)[C@]1(C)O)[C@H]23 :: 111

input: Name the reported activity remaining value associated with the compound `COc1ccc2c(c1)O[C@@H]1COc3cc(OC)c(OC)cc3[C@@H]1C2=O`
output: 111

input: Now the same for `COc1ccc(-c2coc3c(OC)c(OC)cc(O)c3c2=O)cc1`
output: 105

input: And for NS(=O)(=O)c1cc(C2(O)NC(=O)c3ccccc32)ccc1Cl (stereo unspecified) ?
output: 117

input: Now this one: `COc1cc2c(c(OC)c1OC)-c1ccc(OC)c(=O)cc1[C@@H](NC(C)=O)CC2`
output: 115

input: Next compound up: `Cc1c(C(N)=O)cc([N+](=O)[O-])cc1[N+](=O)[O-]`
output: 106
